test system: Phakopsora pachyrhizi; experiment: Example D: comparative activity against Phakopsora pachyrhizi (soybean rust), soybean plants sprayed, leaf disks cut from treated plants; assay type: in vivo; conditions: 20 ppm, 0.1% OCHIMA, leaf disks cut one day after application, approx. 12 dpi
Task for the reader: assign each of the following molecules its reported control (%) Phakopsora pachyrhizi (Soybean rust).
Reply numerically in %, unit not repeated.

Query :: Request the reported control (%) Phakopsora pachyrhizi (Soybean rust) associated with CO/C=C(\Oc1cc(C2CCCC2)ccc1C)C(=O)OC [E.13]
Result :: 4

Query :: Request the reported control (%) Phakopsora pachyrhizi (Soybean rust) associated with CO/C=C(\Oc1cc(C#CC2CCCCC2)ccc1C)C(=O)OC [Compound X-1, reference compound]
Result :: 0

Query :: Request the reported control (%) Phakopsora pachyrhizi (Soybean rust) associated with CO/C=C(\Oc1cccc(C(C)(C)C)c1)C(=O)OC [Compound X-2, reference compound]
Result :: 0

Query :: Request the reported control (%) Phakopsora pachyrhizi (Soybean rust) associated with CO/C=C(\Oc1cc(C2CCCCC2)ccc1C)C(=O)OC [E.15]
Result :: 51

Hello, the source for this data is patent US12262710B2, in case you need it.
